Counter-ions that a name gives are not always drawn.
value.kind: melting point

Guide cases for melting point, answers given:
CSc1ccc(-c2ccc3c(c2)C=C(C(=O)Nc2ccc(CN(C)C4CCOCC4)cc2)CCO3)cc1 | 180 to 186 °C
Cc1ccc(-c2ccc3c(c2)C=C(C(=O)Nc2ccc(C[N+]4(C)CCCCC4)cc2)CCO3)cc1 (as salt: iodide) [Compound 96] | 227 to 228 °C (dec.)
Cc1ccc(-c2ccc3nc(C)c(C(=O)Nc4ccc(CN(C)C5CCOCC5)cc4)cc3c2)cc1 | 157 to 160 °C
Cc1ccc(-c2csc(/C=C/C(=O)Nc3ccc(CN(C)C4CCOCC4)cc3)c2)cc1 | 188 to 190 °C
Cc1ccc(-c2ccc3c(c2)C=C(C(=O)Nc2ccc(C[N+]4(C)CCCCC4)cc2)CCO3)cc1 (as salt: chloride) [Compound 97] | 231 to 232 °C
CC(C)c1ccc(-c2ccc(/C=C/C(=O)Nc3ccc(CN(C)C4CCOCC4)cc3)s2)cc1 | 187 to 189 °C

Note down melting point recorded for "COc1ccccc1N1CCN(Cc2ccc(NC(=O)C3=Cc4cc(-c5ccc(C)cc5)ccc4CC3)cc2)CC1"
202 to 205 °C
